# Test system: HL-60
# Assay: NCI tumour cell line growth inhibition, 48 h
The source made the active and inactive calls. No stated cut-off is given here; in the data, active = GI50 up to about 1.1 µM and inactive = higher.
// one of active, inactive, no free text

A selection of reference data follows.
Cn1c(=O)oc2cc(C3CCC(=O)N3Cc3ccc(Cl)cc3)ccc21 (stereo not drawn)	inactive
CCCCCC(/C=C/[C@@H]1CC(=O)C[C@H]1O[Si](C)(C)C(C)(C)C)OCOCCOC (stereo partly drawn)	inactive
CC(C)(C)COC1C2(OCCO2)C2CCC1(C)C2(C)C (stereo not drawn)	inactive
COC(=O)C(C/C=C(\C)c1ccccc1)C(C)=O (stereo not drawn)	inactive
COC(=O)c1ccc(NCc2cc(O)ccc2O)cc1O	inactive

## Task Recorded test call requested for COc1ccc(C[C@@H]2OC3(C=CC(=O)CC3Sc3ccccc3)O[C@H]2Cc2ccc(OC)cc2)cc1 (stereo partly drawn)
## Result active

## Task Hi, sorry to bother you, what did the test record for CCc1nc(N)c2nc(-c3ccc(C#N)cc3)oc2n1 ?
## Result inactive

## Task // outcome(item) with item = COC1=C2CC(C)CC(OC)C(O)C(C)/C=C(\C)C(OC(N)=O)C(OC)/C=C\C=C(/C)C(=O)NC(=C(/C=N/N3CCCCC3)C1=O)C2=O (stereo not drawn)
## Result inactive

## Task Field: outcome | Entry: COC(=O)/C=C/c1ccc2c(c1)CCC2
## Result inactive
